Below, each entry is listed with its recorded MIC90.
system: Fusobacterium sp.; assay: Antimicrobial activity against Fusobacterium sp. by agar dilution method in presence of 5% laked sheep blood; assay type: functional

>  <structure>
C[C@@H](O)[C@H]1C(=O)N2C(C(=O)O)=C(S[C@@H]3CN[C@H](CNS(N)(=O)=O)C3)[C@H](C)[C@H]12

>  <MIC90 [mg/L]>
0.25

$$$$
>  <structure>
C[C@@H](O)[C@H]1C(=O)N2C(C(=O)O)=C(S[C@@H]3CN[C@H](C(=O)N(C)C)C3)[C@H](C)[C@H]12

>  <MIC90 [mg/L]>
0.125

$$$$
>  <structure>
C[C@@H](O)[C@H]1C(=O)N2C(C(=O)O)=C(S[C@H]3C[C@@H](C(=O)N4CC[C@H](NC(=O)CNC(=N)N)C4)N(C)C3)[C@H](C)[C@H]12

>  <MIC90 [mg/L]>
0.5

$$$$
>  <structure>
CC(=N)N1CC[C@H](SC2=C(C(=O)O)N3C(=O)[C@H]([C@@H](C)O)[C@H]3C2)C1

>  <MIC90 [mg/L]>
2

$$$$
>  <structure>
Cc1ncc([N+](=O)[O-])n1CCO

>  <MIC90 [mg/L]>
0.5

$$$$

###

Below, each entry is listed with its recorded MIC.
tested on: Desulfovibrio desulfuricans; experiment: Antimicrobial activity against Desulfovibrio desulfuricans ATCC 29577 by agar dilution method in presence of 5% laked sheep blood; assay type: functional
value.kind: MIC (µg/mL)

>  <structure>
C[C@@H](O)[C@H]1C(=O)N2C(C(=O)O)=C(S[C@H]3C[C@@H](C(=O)N4CC[C@H](NC(=O)CNC(=N)N)C4)N(C)C3)[C@H](C)[C@H]12

>  <value.kind>
MIC

>  <endpoint.result>
0.25

$$$$
>  <structure>
CC(=N)N1CC[C@H](SC2=C(C(=O)O)N3C(=O)[C@H]([C@@H](C)O)[C@H]3C2)C1

>  <value.kind>
MIC

>  <endpoint.result>
0.5

$$$$
>  <structure>
CCC[C@@H]1C[C@@H](C(=O)N[C@@H]([C@H]2O[C@H](SC)[C@H](O)[C@@H](O)[C@H]2O)[C@H](C)Cl)N(C)C1

>  <value.kind>
MIC

>  <endpoint.result>
0.5

$$$$
>  <structure>
Cc1ncc([N+](=O)[O-])n1CCO

>  <value.kind>
MIC

>  <endpoint.result>
0.06

$$$$
>  <structure>
C[C@@H](O)[C@H]1C(=O)N2C(C(=O)O)=C(S[C@@H]3CN[C@H](C(=O)N(C)C)C3)[C@H](C)[C@H]12

>  <value.kind>
MIC

>  <endpoint.result>
0.125

$$$$
>  <structure>
C[C@@H](O)[C@H]1C(=O)N2C(C(=O)O)=C(S[C@@H]3CN[C@H](CNS(N)(=O)=O)C3)[C@H](C)[C@H]12

>  <value.kind>
MIC

>  <endpoint.result>
0.125

$$$$

###

tested on: Paeniclostridium sordellii; experiment: Antimicrobial activity against Clostridium sordellii ATCC 9714 by agar dilution method in presence of 5% laked sheep blood; type: functional; details: Paraclostridium sordellii

>  <structure>
Cc1ncc([N+](=O)[O-])n1CCO

>  <qualifier.symbol>
=

>  <MIC / µg/mL>
1

$$$$
>  <structure>
C[C@@H](O)[C@H]1C(=O)N2C(C(=O)O)=C(S[C@H]3C[C@@H](C(=O)N4CC[C@H](NC(=O)CNC(=N)N)C4)N(C)C3)[C@H](C)[C@H]12

>  <qualifier.symbol>
≤

>  <MIC / µg/mL>
0.015

$$$$
>  <structure>
CCC[C@@H]1C[C@@H](C(=O)N[C@@H]([C@H]2O[C@H](SC)[C@H](O)[C@@H](O)[C@H]2O)[C@H](C)Cl)N(C)C1

>  <qualifier.symbol>
=

>  <MIC / µg/mL>
1

$$$$
>  <structure>
C[C@@H](O)[C@H]1C(=O)N2C(C(=O)O)=C(S[C@@H]3CN[C@H](C(=O)N(C)C)C3)[C@H](C)[C@H]12

>  <qualifier.symbol>
=

>  <MIC / µg/mL>
0.03

$$$$
>  <structure>
CC(=N)N1CC[C@H](SC2=C(C(=O)O)N3C(=O)[C@H]([C@@H](C)O)[C@H]3C2)C1

>  <qualifier.symbol>
=

>  <MIC / µg/mL>
0.03

$$$$
>  <structure>
C[C@@H](O)[C@H]1C(=O)N2C(C(=O)O)=C(S[C@@H]3CN[C@H](CNS(N)(=O)=O)C3)[C@H](C)[C@H]12

>  <qualifier.symbol>
≤

>  <MIC / µg/mL>
0.015

$$$$

###

tested on: Phocaeicola vulgatus; assay: Antimicrobial activity against Bacteroides vulgatus GAI 0673 by agar dilution method in presence of 5% laked sheep blood; assay type: functional
Below, each entry is listed with its recorded MIC.
value.kind: MIC

>  <compound>
C[C@@H](O)[C@H]1C(=O)N2C(C(=O)O)=C(S[C@@H]3CN[C@H](C(=O)N(C)C)C3)[C@H](C)[C@H]12 [MEROPENEM]

>  <study.target>
Phocaeicola vulgatus

>  <value.kind>
MIC

>  <endpoint.result>
0.125 µg/mL

$$$$
>  <compound>
C[C@@H](O)[C@H]1C(=O)N2C(C(=O)O)=C(S[C@H]3C[C@@H](C(=O)N4CC[C@H](NC(=O)CNC(=N)N)C4)N(C)C3)[C@H](C)[C@H]12 [TOMOPENEM]

>  <study.target>
Phocaeicola vulgatus

>  <value.kind>
MIC

>  <endpoint.result>
0.25 µg/mL

$$$$
>  <compound>
C[C@@H](O)[C@H]1C(=O)N2C(C(=O)O)=C(S[C@@H]3CN[C@H](CNS(N)(=O)=O)C3)[C@H](C)[C@H]12 [DORIPENEM]

>  <study.target>
Phocaeicola vulgatus

>  <value.kind>
MIC

>  <endpoint.result>
0.25 µg/mL

$$$$
>  <compound>
CCC[C@@H]1C[C@@H](C(=O)N[C@@H]([C@H]2O[C@H](SC)[C@H](O)[C@@H](O)[C@H]2O)[C@H](C)Cl)N(C)C1 [CLINDAMYCIN]

>  <study.target>
Phocaeicola vulgatus

>  <value.kind>
MIC

>  <endpoint.result>
0.06 µg/mL

$$$$
>  <compound>
CC(=N)N1CC[C@H](SC2=C(C(=O)O)N3C(=O)[C@H]([C@@H](C)O)[C@H]3C2)C1

>  <study.target>
Phocaeicola vulgatus

>  <value.kind>
MIC

>  <endpoint.result>
0.125 µg/mL

$$$$
>  <compound>
Cc1ncc([N+](=O)[O-])n1CCO [METRONIDAZOLE]

>  <study.target>
Phocaeicola vulgatus

>  <value.kind>
MIC

>  <endpoint.result>
0.25 µg/mL

$$$$

###

Below, each entry is listed with its recorded MIC.
system: Bacteroides fragilis; test: Antimicrobial activity against Bacteroides fragilis GAI 0558 by agar dilution method in presence of 5% laked sheep blood; assay type: functional

>  <molecule>
C[C@@H](O)[C@H]1C(=O)N2C(C(=O)O)=C(S[C@@H]3CN[C@H](C(=O)N(C)C)C3)[C@H](C)[C@H]12 [MEROPENEM]

>  <MIC (µg/mL)>
0.05

$$$$
>  <molecule>
CC(=N)N1CC[C@H](SC2=C(C(=O)O)N3C(=O)[C@H]([C@@H](C)O)[C@H]3C2)C1

>  <MIC (µg/mL)>
0.5

$$$$
>  <molecule>
C[C@@H](O)[C@H]1C(=O)N2C(C(=O)O)=C(S[C@@H]3CN[C@H](CNS(N)(=O)=O)C3)[C@H](C)[C@H]12 [DORIPENEM]

>  <MIC (µg/mL)>
0.5

$$$$
>  <molecule>
CCC[C@@H]1C[C@@H](C(=O)N[C@@H]([C@H]2O[C@H](SC)[C@H](O)[C@@H](O)[C@H]2O)[C@H](C)Cl)N(C)C1 [CLINDAMYCIN]

>  <MIC (µg/mL)>
0.5

$$$$
>  <molecule>
C[C@@H](O)[C@H]1C(=O)N2C(C(=O)O)=C(S[C@H]3C[C@@H](C(=O)N4CC[C@H](NC(=O)CNC(=N)N)C4)N(C)C3)[C@H](C)[C@H]12 [TOMOPENEM]

>  <MIC (µg/mL)>
1

$$$$
>  <molecule>
Cc1ncc([N+](=O)[O-])n1CCO [METRONIDAZOLE]

>  <MIC (µg/mL)>
0.5

$$$$

###

test system: Bacteroides uniformis; assay: Antimicrobial activity against Bacteroides uniformis ATCC 8492 by agar dilution method in presence of 5% laked sheep blood; type: functional

>  <structure>
CC(=N)N1CC[C@H](SC2=C(C(=O)O)N3C(=O)[C@H]([C@@H](C)O)[C@H]3C2)C1

>  <measurement.units>
µg/mL

>  <qualifier.symbol>
=

>  <MIC>
0.25

$$$$
>  <structure>
Cc1ncc([N+](=O)[O-])n1CCO

>  <measurement.units>
µg/mL

>  <qualifier.symbol>
=

>  <MIC>
0.5

$$$$
>  <structure>
C[C@@H](O)[C@H]1C(=O)N2C(C(=O)O)=C(S[C@@H]3CN[C@H](C(=O)N(C)C)C3)[C@H](C)[C@H]12

>  <measurement.units>
µg/mL

>  <qualifier.symbol>
=

>  <MIC>
0.125

$$$$
>  <structure>
CCC[C@@H]1C[C@@H](C(=O)N[C@@H]([C@H]2O[C@H](SC)[C@H](O)[C@@H](O)[C@H]2O)[C@H](C)Cl)N(C)C1

>  <measurement.units>
µg/mL

>  <qualifier.symbol>
≤

>  <MIC>
0.03

$$$$
>  <structure>
C[C@@H](O)[C@H]1C(=O)N2C(C(=O)O)=C(S[C@H]3C[C@@H](C(=O)N4CC[C@H](NC(=O)CNC(=N)N)C4)N(C)C3)[C@H](C)[C@H]12

>  <measurement.units>
µg/mL

>  <qualifier.symbol>
=

>  <MIC>
0.25

$$$$
>  <structure>
C[C@@H](O)[C@H]1C(=O)N2C(C(=O)O)=C(S[C@@H]3CN[C@H](CNS(N)(=O)=O)C3)[C@H](C)[C@H]12

>  <measurement.units>
µg/mL

>  <qualifier.symbol>
=

>  <MIC>
0.25

$$$$
